Test: Quantitative High-Throughput drug screen in 47 multiple myeloma cell lines against the NCATS MIPE library collection: XG1_PLB cell viability assay (AID 1919866); also: nearly all actives have a fitted effect of over 35% in size
Conditions: CellTiter-Glo ATP, 48 h; series mostly up to 45.8 µM
From the text: PI: Beverly A. Mock Ph.D. Laboratory of Cancer Biology and Genetics, Center for Cancer Research, National Cancer Institute, National Institute of Health, Bethesda, Maryland […] 5; Detector; 425V; Luminescence; Viewlux PerkinElmer. […] 1. […] Briefly, the corresponding myeloma cell lines were screened in 1,536-well plates with 500 cells, 5-uL per well for inhibition of cell viability (assessed by measuring ATP levels with CellTiterGlo). […]
Inconclusive results are not listed. Calls of active or inactive are those of the source. Calls follow the shape of the dose curve; as a rule, active = well fitted cell-killing curve with a large enough effect; inconclusive = small, poorly fitted or top-dose-only effect, or effect the other way; inactive = no such curve, though single readings can be large or run the other way.
Outcome codes: active, inactive

# COMPOUND, GROUP
records = [
    ("O=C(CCCN1CCN(c2ccc(F)cc2)CC1)NC1c2ccccc2CSc2ccccc21 (stereo not drawn)", "active"),
    ("COC1CCC(C(=O)c2ccc3nc4c(cc3c2)CCCO4)CC1 (stereo not drawn)", "active"),
    ("CN(C)CCOc1ccc(C(=C(CCCl)c2ccccc2)c2ccccc2)cc1", "active"),
    ("C[C@H]1O[C@@H](n2cc(F)c(=O)[nH]c2=O)[C@H](O)[C@H]1O", "active"),
    ("CCC(C)SSc1ncc[nH]1 (stereo not drawn)", "active"),
    ("Cc1cccc(Nc2nc(N[C@@H]3CCCC[C@H]3N)ncc2C(N)=O)c1", "active"),
    ("CO[C@H]1O[C@@H]2O[C@@]3(C)CC[C@@H]4[C@@H](C)CC[C@@H]([C@H]1C)[C@@]24OO3", "active"),
    ("Cc1c(-c2cccc3c(CCCOc4cccc5ccccc45)c(C(=O)O)n(Cc4cccnc4)c23)c(COc2ccc(N3CCN([S+](=O)([O-])N(C)C)CC3)cc2)nn1C", "inactive"),
    ("CNC(=O)c1cc(Oc2ccc(NC(=O)Nc3ccc(Cl)c(C(F)(F)F)c3)c(F)c2)ccn1", "active"),
    ("C[C@]12CCC3=C4CCC(=O)C=C4CC[C@@H]3[C@H]1CC[C@@]2(O)CC#N", "inactive"),
    ("COc1cc2nccc(Oc3ccc(NC(=O)Nc4cc(C)on4)c(Cl)c3)c2cc1OC", "active"),
    ("N#CC(=C1Nc2ccccc2S1)c1ccnc(OCc2ccc(CN3CCOCC3)cc2)n1", "active"),
    ("CC(C)N(CCCNC(=O)Nc1ccc(C(C)(C)C)cc1)C[C@H]1O[C@@H](n2cc(Br)c3c(N)ncnc32)[C@H](O)[C@H]1O", "active"),
    ("Cc1cccc2c1CC[C@H](CN1CCC(c3c(Cl)cccc3Cl)CC1)C[C@@H]2O", "active"),
    ("CCNC(=O)[C@H]1O[C@@H](n2cnc3c(N)nc(NCCc4ccc(CCC(=O)O)cc4)nc32)[C@H](O)[C@H]1O", "inactive"),
    ("CCN1CCN(c2ccc(Nc3cc(N(C)C(=O)Nc4c(Cl)c(OC)cc(OC)c4Cl)ncn3)cc2)CC1", "active"),
    ("O=C(CC12CC3CC(CC(C3)C1)C2)Nc1cccc2nc(NCCNCCO)ccc12", "active"),
    ("CC1(C)OC2CC3C4CC(F)C5=CC(=O)C=CC5(C)C4C(O)CC3(C)[C@]2(C(=O)CO)O1 (stereo partly drawn)", "inactive"),
]
